Molecular target: UniProtKB P32301
Sequence (whole entry): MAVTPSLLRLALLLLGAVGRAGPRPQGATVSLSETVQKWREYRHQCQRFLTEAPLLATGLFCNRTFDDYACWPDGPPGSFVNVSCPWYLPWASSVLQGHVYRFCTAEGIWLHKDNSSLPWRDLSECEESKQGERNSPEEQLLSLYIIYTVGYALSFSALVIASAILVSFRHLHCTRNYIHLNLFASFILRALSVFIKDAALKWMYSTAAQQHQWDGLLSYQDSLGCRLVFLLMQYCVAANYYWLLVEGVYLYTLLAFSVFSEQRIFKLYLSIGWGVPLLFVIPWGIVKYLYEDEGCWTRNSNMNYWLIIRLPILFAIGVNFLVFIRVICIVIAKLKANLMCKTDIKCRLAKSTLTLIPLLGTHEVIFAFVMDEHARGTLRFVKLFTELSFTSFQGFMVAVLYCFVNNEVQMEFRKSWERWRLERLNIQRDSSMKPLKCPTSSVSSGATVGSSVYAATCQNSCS
Assay: Inhibition of [125I]GLP1 (7-36) amide binding to rat GLP1R expressed in HEK293 cells relative to untreated control
Type: cell-based
Parameters: concentration or dose not given beside the values
Details: concentration not given here
EXPERIMENTAL READOUT: inhibition (%)

COc1cc([C@H]2[C@](NC(=O)c3ccc(NC(=O)OC(C)(C)C)cc3)(C(=O)O)[C@@H](c3ccc(OC(=O)c4ccc(C)s4)c(OC)c3)[C@]2(NC(=O)c2ccc(NC(=O)OC(C)(C)C)cc2)C(=O)O)ccc1OC(=O)c1ccc(C)s1 :: 40.1
COc1cc([C@H]2[C@](NC(=O)c3ccc(NC(=O)CO)cc3)(C(=O)O)[C@@H](c3ccc(OC(=O)c4cccs4)c(OC)c3)[C@]2(NC(=O)c2ccc(NC(=O)CO)cc2)C(=O)O)ccc1OC(=O)c1cccs1 :: 59.3
COc1cc([C@H]2[C@](NC(=O)c3ccc(NC(=O)C4CCCCC4)cc3)(C(=O)O)[C@@H](c3ccc(OC(=O)c4cccs4)c(OC)c3)[C@]2(NC(=O)c2ccc(NC(=O)C3CCCCC3)cc2)C(=O)O)ccc1OC(=O)c1cccs1 :: 58.9
COc1cc([C@H]2[C@](NC(=O)c3ccc(NC(=O)C4CCCC4)cc3)(C(=O)O)[C@@H](c3ccc(OC(=O)c4cccs4)c(OC)c3)[C@@]2(NC(=O)c2ccc(NC(=O)C3CCCC3)cc2)C(=O)O)ccc1OC(=O)c1cccs1 :: 39.3

// data source = ChEMBL document CHEMBL2157924
